System: NCI-H522 lung
Test: NCI tumour cell line growth inhibition, 48 h
What TGI was measured for each of the following?

Answered cases to consult:
## Task Reported TGI for NCI-H522 lung, given O=C(/C=C/C(=O)N1CCCC1)N1CCCC1 ?
## Result > 100 µM

## Task Reported TGI for NCI-H522 lung, given COC(=O)C(=O)C(C(=O)C(=O)Nc1cccc(C(C)=O)c1)c1nc2ccccc2[nH]c1=O (stereo unspecified) ?
## Result > 100 µM

## Task Reported TGI for NCI-H522 lung, given Nc1ccccc1C#C/C=C\C#Cc1ccccc1 ?
## Result 20.5 µM

## Task Reported TGI for NCI-H522 lung, given c1ccc2c(c1)Sc1nccc3ccnc-2c13 ?
## Result 97.1 µM

## Task Reported TGI for NCI-H522 lung, given CC(C)c1cccc(C(C)C)c1NC(=O)/C(CC(=O)CC(c1ccccc1)c1c(O)c2ccccc2oc1=O)=N/O (stereo unspecified) ?
## Result > 100 µM

## Task Reported TGI for NCI-H522 lung, given NCCCCNc1ccc2c(=O)[nH][nH]c(=O)c2c1 ?
## Result > 100 µM

## Task Reported TGI for NCI-H522 lung, given Cn1c2c(c3ccc(Cl)c(Cl)c31)C(C#N)C1(CCNCC1)NC2=O (stereo unspecified) ?
## Result 3.42 µM

## Task Reported TGI for NCI-H522 lung, given CC1C(=O)OCC2=CCN3CCC(OC(=O)C(C)C1(C)O)C23 (stereo unspecified) ?
## Result > 100 µM

Hi team, please reply with TGI for each item in this list.
1. CCOC(=O)c1cc(/C=C/C(C)=C/C(=O)OC)oc1C
2. CCOc1ccc(Nc2nc(N)nc(N)c2N)cc1
3. COc1ccc(/C=c2\s/c(=C3/SC(=S)N(c4ccccc4)C3=O)n(-c3ccccc3)c2=O)cc1

## Result
1: > 100 µM; 2: 52.1 µM; 3: > 100 µM
